# COMPOUND, melting point
measured = [
    ("COc1cc(C)c(C(=O)Oc2cc(C)c(C(=O)OCc3ccccc3)c(O)c2C)c(O)c1C [Compound 6a]", "113 to 115 °C"),
    ("CCOc1cc(C)c(C(=O)Oc2cc(C)c(C(=O)OC)c(O)c2C)c(O)c1C [Compound 6h]", "152 to 155 °C"),
    ("CCCOc1cc(C)c(C(=O)Oc2cc(C)c(C(=O)OC)c(O)c2C)c(O)c1C [Compound 6o]", "110 to 113 °C"),
    ("COC(=O)c1c(C)cc(OC(=O)c2c(C)cc(OC)c(C)c2O)c(C)c1O [Compound 6b]", "177 to 180 °C"),
    ("C=CCOC(=O)c1c(C)cc(OC(=O)c2c(C)cc(OCc3ccccc3)c(C)c2O)c(C)c1O [6n′]", "127 to 130 °C"),
]

* * *

system: C2O4^2− transport, MDCK cells; experiment: In vitro litholytic activity: C2O4^2− transport inhibition, Transwell chamber with MDCK cells; type: cell-based, canine; settings: Canis lupus familiaris; 100 μmol/L, MDCK cells in Transwell; mean ± SD of three replicates; read-out: Transport Inhibition Rate (%) C2O4^2−

# SMILES_REPR, MEASURE_UNIT, inhibition at 100 µM
data = [
    ("C=CCOc1cc(C)c(C(=O)Oc2cc(C)c(C(=O)OCC)c(O)c2C)c(O)c1C", "%", 0.52),
    ("CCCOC(=O)c1c(C)cc(OC(=O)c2c(C)cc(OC(C)C)c(C)c2O)c(C)c1O", "%", -5.42),
    ("CCCOC(=O)c1c(C)cc(OC(=O)c2c(C)cc(OCC)c(C)c2O)c(C)c1O", "%", 42.3),
    ("CCCOC(=O)c1c(C)cc(OC(=O)c2c(C)cc(OCc3ccccc3)c(C)c2O)c(C)c1O", "%", 16.5),
    ("Cc1cc(OC(=O)c2c(C)cc(OC(C)C)c(C)c2O)c(C)c(O)c1C(=O)OCC#N", "%", -13.2),
    ("CCCOc1cc(C)c(C(=O)Oc2cc(C)c(C(=O)OCC)c(O)c2C)c(O)c1C", "%", 4.29),
    ("CCOc1cc(C)c(C(=O)Oc2cc(C)c(C(=O)OCc3ccccc3)c(O)c2C)c(O)c1C", "%", 0.11),
    ("C=CCOC(=O)c1c(C)cc(OC(=O)c2c(C)cc(OC(C)C)c(C)c2O)c(C)c1O", "%", 0.23),
]

* * *

system: C2O4^2− transport, MDCK cells; test: In vitro litholytic activity: C2O4^2− transport inhibition, Transwell chamber with MDCK cells; assay type: cell-based, canine; conditions: Canis lupus familiaris; 100 μmol/L, MDCK cells in Transwell; mean ± SD of three replicates; read-out: Transport Inhibition Rate (%) C2O4^2−

# SMILES_REPR, MEASURE_UNIT, inhibition at 100 µM
measured = [
    ("C=CCOc1cc(C)c(C(=O)Oc2cc(C)c(C(=O)OCCC)c(O)c2C)c(O)c1C", "%", 5.77),
    ("COc1cc(C)c(C(=O)Oc2cc(C)c(C(=O)OCC#N)c(O)c2C)c(O)c1C", "%", -12.6),
    ("Cc1cc(OC(=O)c2c(C)cc(OC(C)C)c(C)c2O)c(C)c(O)c1C(=O)OC(C)C", "%", -26.3),
]

* * *

test system: C2O4^2− transport, MDCK cells; experiment: In vitro litholytic activity: C2O4^2− transport inhibition, Transwell chamber with MDCK cells; format: cell-based, canine; conditions: Canis lupus familiaris; 100 μmol/L, MDCK cells in Transwell; mean ± SD of three replicates; read-out: Transport Inhibition Rate (%) C2O4^2−
In this section we review reported inhibition at 100 µM values for a set of compounds.

# SMILES_REPR, inhibition at 100 µM, %
data = [
    ("CCCOc1cc(C)c(C(=O)Oc2cc(C)c(C(=O)OC)c(O)c2C)c(O)c1C", 5.6),
    ("COC(=O)c1c(C)cc(OC(=O)c2c(C)cc(OC(C)C)c(C)c2O)c(C)c1O", -17.9),
    ("Cc1cc(OCc2ccccc2)c(C)c(O)c1C(=O)Oc1cc(C)c(C(=O)OCC#N)c(O)c1C", 2.03),
    ("CCOC(=O)c1c(C)cc(OC(=O)c2c(C)cc(OC(C)C)c(C)c2O)c(C)c1O", 19),
    ("CCCOc1cc(C)c(C(=O)Oc2cc(C)c(C(=O)OC(C)C)c(O)c2C)c(O)c1C", 11.9),
    ("CCOc1cc(C)c(C(=O)Oc2cc(C)c(C(=O)OC(C)C)c(O)c2C)c(O)c1C", -5.12),
    ("COc1cc(C)c(C(=O)Oc2cc(C)c(C(=O)O)c(O)c2C)c(O)c1C", 2.97),
    ("CCCOC(=O)c1c(C)cc(OC(=O)c2c(C)cc(OC)c(C)c2O)c(C)c1O", -6.69),
    ("CCCOc1cc(C)c(C(=O)Oc2cc(C)c(C(=O)OCc3ccccc3)c(O)c2C)c(O)c1C", 22.3),
    ("COc1cc(C)c(C(=O)Oc2cc(C)c(C(=O)OCc3ccccc3)c(O)c2C)c(O)c1C", -16.6),
]

Source listed as paper PMC10222548.
